Measured Activity by item
- Tested on: Tobacco mosaic virus
- method: Antiviral activity against Tobacco mosaic virus (TMV) pre-treated with 125 ug/mL compound for 30 min followed by inoculation on left side of Nicotiana tabacum leaves assessed as virus inactivation effect measured 3 to 4 days post viral infection
- Format: functional
metric: Activity (%)

[[record]]
molecule = "CCOP(=O)(OCC)C(N/C(SC)=C(/C#N)C(N)=O)c1ccccc1F (stereo not given)"
metric = "Activity"
data_value = 46.2

[[record]]
molecule = "CCOCCOC(=O)/C(C#N)=C(\\NC(c1ccccc1F)P(=O)(OCC)OCC)SC (stereo not given)"
metric = "Activity"
data_value = 44.2

[[record]]
molecule = "CCCCOP(=O)(OCCCC)C(N/C(SC)=C(/C#N)C(=O)OCC)c1ccccc1 (stereo not given)"
metric = "Activity"
data_value = 51.6

[[record]]
molecule = "CCCOP(=O)(OCCC)C(N/C(SC)=C(/C#N)C(=O)OCC)c1ccccc1 (stereo not given)"
metric = "Activity"
data_value = 47.9

[[record]]
molecule = "CCOC(=O)/C(C#N)=C(\\NC(c1ccccc1F)P(=O)(OCC)OCC)SC (stereo not given)"
metric = "Activity"
data_value = 50.1

[[record]]
molecule = "CCCCOP(=O)(OCCCC)C(N/C(SC)=C(/C#N)C(=O)OC)c1ccccc1 (stereo not given)"
metric = "Activity"
data_value = 66.9

[[record]]
molecule = "CNCC(=O)N[C@@H](CO)C(=O)N[C@H]1[C@H](O)[C@@H](O)[C@H](n2ccc(N)nc2=O)O[C@@H]1C(N)=O [NINGNANMYCIN]"
metric = "Activity"
data_value = 70

[[record]]
molecule = "CCOP(=O)(OCC)C(N/C(SC)=C(/C#N)C(=O)OC)c1ccccc1F (stereo not given)"
metric = "Activity"
data_value = 60.6

[[record]]
molecule = "CCOP(=O)(OCC)C(N/C(SC)=C(/C#N)C(=O)NCc1ccccc1)c1ccccc1F (stereo not given)"
metric = "Activity"
data_value = 48.9

[[record]]
molecule = "CCCCOP(=O)(OCCCC)C(N/C(SC)=C(/C#N)C(=O)OCCOCC)c1ccccc1 (stereo not given)"
metric = "Activity"
data_value = 53.8

